settings: Ebola virus entry assay, ratio channel readout
The source made the active and inactive calls. Calls come from the whole dose curve. Numbered stars: 1 amine (or outer) side, 2 acyl side, 3 side chain; on linkers, the order of the positions; unused ones are H or OH. Bridge positions count the residues as written; N and C are the ends. Square brackets hold non-standard residues; d marks the D form. Peptide text beside a SMILES is read from it. I, II: the chains in the order shown. Actinocin(9to1) = Cc1c2oc3c(C)ccc(C(=O)[*:1])c3nc-2c(C(=O)[*:2])c(N)c1=O; NMeV = CN[C@H](C(=O)O)C(C)C; Sar = CNCC(=O)O
Write down the outcome that applies. Available outcomes: Yes = active, No = inactive

Assay outcome for CC[C@@]1(O)C(=O)OCc2c1cc1n(c2=O)Cc2cc3c(CN(C)C)c(O)ccc3nc2-1 : what was it?
No

Assay outcome for NC(=O)OCC(COC(N)=O)c1ccccc1 : what was it?
No

Assay outcome for CC1(C)S[C@@H]2[C@H](NC(=O)C(C(=O)O)c3ccccc3)C(=O)N2[C@H]1C(=O)O (some centres undefined) : what was it?
No

Assay outcome for O=C(c1ccc(OCCN2CCCCC2)cc1)c1c(-c2ccc(O)cc2)sc2cc(O)ccc12 : what was it?
Yes

Assay outcome for CS(=O)(=O)OCCCCOS(C)(=O)=O : what was it?
No

Assay outcome for Nc1nc(N)c2nc(-c3ccccc3)c(N)nc2n1 : what was it?
No

Assay outcome for Cc1c2oc3c(C)ccc(C(=O)N[C@@H]4C(=O)N[C@H](C(C)C)C(=O)N5CCC[C@H]5C(=O)N(C)CC(=O)N(C)[C@@H](C(C)C)C(=O)O[C@@H]4C)c3nc-2c(C(=O)N[C@@H]2C(=O)N[C@H](C(C)C)C(=O)N3CCC[C@H]3C(=O)N(C)CC(=O)N(C)[C@@H](C(C)C)C(=O)O[C@@H]2C)c(N)c1=O (I: T[dV]P[Sar][NMeV] / II: T[dV]P[Sar][NMeV]; ester I:1-I:C, II:1-II:C; linker I:N-II:N via Actinocin(9to1)) : what was it?
No

Assay outcome for CC(CN1c2ccccc2Sc2ccccc21)N(C)C (centres undefined) : what was it?
No

Assay outcome for COc1c(C)c2c(c(O)c1C/C=C(\C)CCC(=O)OCCN1CCOCC1)C(=O)OC2 : what was it?
No

Assay outcome for CCn1cc(C(=O)O)c(=O)c2cc(F)c(N3CCNCC3)cc21 : what was it?
No

Assay outcome for NS(=O)(=O)Cc1noc2ccccc12 : what was it?
No

Assay outcome for CC#C[C@]1(O)CC[C@H]2[C@@H]3CCC4=CC(=O)CCC4=C3[C@@H](c3ccc(N(C)C)cc3)C[C@@]21C : what was it?
No

Assay outcome for Cc1nc2n(c(=O)c1CCN1CCC(c3noc4cc(F)ccc34)CC1)CCC[C@H]2O : what was it?
No

Assay outcome for CCc1ccc(CCOc2ccc(CC3SC(=O)NC3=O)cc2)nc1 (centres undefined) : what was it?
No

Assay outcome for CC[C@]1(O)C[C@H]2CN(CCc3c([nH]c4ccccc34)[C@@](C(=O)OC)(c3cc4c(cc3OC)N(C=O)[C@H]3[C@@](O)(C(=O)OC)[C@H](OC(C)=O)[C@]5(CC)C=CCN6CC[C@]43[C@@H]65)C2)C1 : what was it?
No

Assay outcome for CN1CCN(CCCN2c3ccccc3Sc3ccc(Cl)cc32)CC1 : what was it?
No

Assay outcome for CCN(CC)CCNC(=O)c1c(C)[nH]c(/C=C2\C(=O)Nc3ccc(F)cc32)c1C : what was it?
Yes

Assay outcome for CN(C)c1nc(N(C)C)nc(N(C)C)n1 : what was it?
No

Assay outcome for O=C1CC[C@@]2(O)[C@H]3Cc4ccc(O)c5c4[C@@]2(CCN3CC2CC2)[C@H]1O5 : what was it?
No

Assay outcome for CCC(=O)O[C@H]1[C@H](O[C@@H]2[C@@H](C)[C@H](O[C@H]3C[C@@](C)(OC)[C@@H](O)[C@H](C)O3)[C@@H](C)C(=O)O[C@H](CC)[C@@](C)(O)[C@H](O)[C@@H](C)C(=O)[C@H](C)C[C@@]2(C)O)O[C@H](C)C[C@@H]1N(C)C : what was it?
No

Assay outcome for C[C@]12CC[C@H]3[C@@H](CCC4=CC(=O)CC[C@@H]43)[C@@H]1CC[C@@H]2OC(=O)CCc1ccccc1 : what was it?
No

Assay outcome for CN1C(=O)CC(C)(c2ccccc2)C1=O (centres undefined) : what was it?
No

Assay outcome for Nc1cc(-c2ccncc2)c[nH]c1=O : what was it?
No

Assay outcome for COc1nc(N)nc2c1ncn2[C@@H]1O[C@H](CO)[C@@H](O)[C@@H]1O : what was it?
No

Assay outcome for CC/C(=C(\c1ccccc1)c1ccc(OCCN(C)C)cc1)c1ccccc1 : what was it?
Yes

Assay outcome for CCCN(CCC)CCc1cccc2c1CC(=O)N2 : what was it?
No

Assay outcome for N[C@@H]1CONC1=O : what was it?
No

Assay outcome for COc1cc(NC(C)CCCN)c2ncccc2c1 (centres undefined) : what was it?
No

Assay outcome for Cc1onc(-c2c(Cl)cccc2Cl)c1C(=O)N[C@@H]1C(=O)N2[C@@H]1SC(C)(C)[C@@H]2C(=O)O : what was it?
No
